Test system: Caco-2 (human colonic epithelial cell line)
Experiment: Uptake of labeled peptides by Caco-2 cells, photometric cell imaging
Assay type: cell-based
Conditions: cells exposed to labeled peptide at 17 μM
assay-metric: Average concentration of labeled peptide measured in cells, Caco-2 (nm)
Respond with the bare value in nm.

Worked examples, 4 sequences total:
[
  {
    "biopolymer-sequence": "MAAWMRSLFSPLKKLWIRMH (Zea mays) [mTP2]",
    "unit-label": "nm",
    "reported-value": 20
  },
  {
    "biopolymer-sequence": "MLFRLRRSVRLRGLLA (listed as Arabidopsis thaliana) [mTP5]",
    "unit-label": "nm",
    "reported-value": 60
  },
  {
    "biopolymer-sequence": "MFSYLPRYPLRAASARALVRATRPSYRSALLRYQ (listed as Triticum aestivum) [mTP1]",
    "unit-label": "nm",
    "reported-value": 70
  },
  {
    "biopolymer-sequence": "MKLLWRLILSRKW (listed as Arabidopsis thaliana) [mTP3]",
    "unit-label": "nm",
    "reported-value": 60
  }
]

The recorded Average concentration of labeled peptide measured in cells, Caco-2 for MWWRRSRTNSLRYT (listed as Arabidopsis thaliana) [mTP4] is 60
